# target.system: PIK3CG (human) (UniProt P48736)
# Sequence (P48736 whole entry, looked up): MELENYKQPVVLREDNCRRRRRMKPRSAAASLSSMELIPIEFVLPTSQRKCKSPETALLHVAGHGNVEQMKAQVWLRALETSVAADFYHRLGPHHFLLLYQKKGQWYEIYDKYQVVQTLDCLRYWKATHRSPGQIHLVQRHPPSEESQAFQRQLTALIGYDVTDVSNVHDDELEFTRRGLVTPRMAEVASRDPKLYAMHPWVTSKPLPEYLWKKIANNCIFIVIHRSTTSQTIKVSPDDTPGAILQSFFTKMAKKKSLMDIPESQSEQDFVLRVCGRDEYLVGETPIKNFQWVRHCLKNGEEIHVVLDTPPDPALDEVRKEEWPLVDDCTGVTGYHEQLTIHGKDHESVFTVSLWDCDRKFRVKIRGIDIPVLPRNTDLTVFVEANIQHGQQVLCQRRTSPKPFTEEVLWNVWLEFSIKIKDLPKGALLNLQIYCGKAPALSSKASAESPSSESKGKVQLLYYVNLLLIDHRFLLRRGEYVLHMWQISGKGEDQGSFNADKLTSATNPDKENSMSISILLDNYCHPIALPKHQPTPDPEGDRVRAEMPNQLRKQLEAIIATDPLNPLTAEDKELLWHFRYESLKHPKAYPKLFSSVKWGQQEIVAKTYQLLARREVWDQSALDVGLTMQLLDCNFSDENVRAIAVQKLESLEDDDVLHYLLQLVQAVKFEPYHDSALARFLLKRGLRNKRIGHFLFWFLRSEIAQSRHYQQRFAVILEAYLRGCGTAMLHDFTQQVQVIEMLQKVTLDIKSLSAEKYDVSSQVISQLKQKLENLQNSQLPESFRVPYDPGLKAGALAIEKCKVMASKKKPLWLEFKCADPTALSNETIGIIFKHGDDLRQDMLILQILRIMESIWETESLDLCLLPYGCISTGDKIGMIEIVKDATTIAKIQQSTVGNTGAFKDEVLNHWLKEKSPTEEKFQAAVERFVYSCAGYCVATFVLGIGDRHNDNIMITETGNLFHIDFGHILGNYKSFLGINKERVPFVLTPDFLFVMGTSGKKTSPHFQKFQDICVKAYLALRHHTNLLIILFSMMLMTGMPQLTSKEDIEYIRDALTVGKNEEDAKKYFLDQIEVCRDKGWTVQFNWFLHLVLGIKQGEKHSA
# test.details: Enzyme Assay
measurement.label: IC50 (nM)
Write the number in nM without appending the unit.

Item `CN[C@H]1CCC[C@@H]1NS(=O)(=O)c1ccc(C)c(-c2cnc(N)c(-c3ccnc(C)c3)n2)c1` with PIK3CG (human) (UniProt P48736) - IC50?
820

State its IC50 on PIK3CG (human) (UniProt P48736): `Cc1ccc(S(=O)(=O)NCC(C)(C)CO)cc1-c1cnc(N)c(-c2nc(C3CC3)no2)n1`
81

Hello, I am looking for reported IC50 with PIK3CG (human) (UniProt P48736) for `CN[C@@H]1CCC[C@H]1NS(=O)(=O)c1ccc(C)c(-c2cnc(N)c(-c3ccnc(C)c3)n2)c1` . Could you help?
110

Tell me reported IC50 for `Cc1ccc(S(=O)(=O)NCCC(C)(C)O)cc1-c1cnc(N)c(-c2nc(C3CC3)no2)n1` , tested with PIK3CG (human) (UniProt P48736).
12

Lab request: please report IC50 under test system PIK3CG (human) (UniProt P48736) for `Cc1cc(-c2nc(-c3cc(S(=O)(=O)N[C@H]4CC[C@H](N)CC4)ccc3C)cnc2N)ccn1`
51
